This collection of values is drawn from patent US20260232732A1.

# measured on: T1, biotin-peptide FNFTDFYCEK (human)
# T1 peptide: Biotin-FNFTDFYCEK
# test summary: ELISA biotin-peptide; scFv 10 ug/mL; repII
Where no end group is shown, it is not given here. The star is where a group is joined. Biotin = O=C1N[C@H]2[C@H](CS[C@H]2CCCCC(=O)*)N1
test readout: OD450 (OD)

CCR9_HUM2 scFv (humanized anti-CCR9 scFv, SEQ ID NO: 17 with C-terminal 6xHis tag) (scFv) scFv: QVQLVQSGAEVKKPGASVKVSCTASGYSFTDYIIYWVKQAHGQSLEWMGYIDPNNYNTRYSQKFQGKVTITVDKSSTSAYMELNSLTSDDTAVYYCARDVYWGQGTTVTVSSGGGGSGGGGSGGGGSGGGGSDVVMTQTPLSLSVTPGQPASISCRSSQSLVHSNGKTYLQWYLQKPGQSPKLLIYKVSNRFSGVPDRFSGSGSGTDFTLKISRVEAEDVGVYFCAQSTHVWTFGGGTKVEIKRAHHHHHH ... 0.06
Comparative antibody 3 (Comp-3) scFv, SR_92R (Somovilla-Crespo et al. 2018), His-tagged (scFv) scFv: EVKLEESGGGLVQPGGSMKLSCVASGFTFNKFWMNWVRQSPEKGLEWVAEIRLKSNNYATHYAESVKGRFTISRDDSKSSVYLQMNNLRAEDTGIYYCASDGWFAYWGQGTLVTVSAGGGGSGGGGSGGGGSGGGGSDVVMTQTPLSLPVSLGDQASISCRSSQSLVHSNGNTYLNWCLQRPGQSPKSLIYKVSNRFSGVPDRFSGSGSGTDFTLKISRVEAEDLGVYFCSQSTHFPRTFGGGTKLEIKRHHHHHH ... 0.07
Comparative antibody 1 (Comp-1) scFv, SEQ ID NO: 10 from WO2023/037125 A1, His-tagged (scFv) scFv: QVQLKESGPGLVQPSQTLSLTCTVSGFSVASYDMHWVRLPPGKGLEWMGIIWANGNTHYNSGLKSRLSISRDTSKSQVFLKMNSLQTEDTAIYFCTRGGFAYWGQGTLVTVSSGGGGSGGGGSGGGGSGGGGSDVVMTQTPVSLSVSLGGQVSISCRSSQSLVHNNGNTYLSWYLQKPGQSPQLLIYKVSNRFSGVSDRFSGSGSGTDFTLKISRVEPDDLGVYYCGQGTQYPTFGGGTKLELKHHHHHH ... 0.05
Comparative antibody 2 (Comp-2) scFv, 243LO326 (VH SEQ ID NO: 51 and VL SEQ ID NO: 52 of WO 2022/195028 A2), His-tagged (scFv) scFv: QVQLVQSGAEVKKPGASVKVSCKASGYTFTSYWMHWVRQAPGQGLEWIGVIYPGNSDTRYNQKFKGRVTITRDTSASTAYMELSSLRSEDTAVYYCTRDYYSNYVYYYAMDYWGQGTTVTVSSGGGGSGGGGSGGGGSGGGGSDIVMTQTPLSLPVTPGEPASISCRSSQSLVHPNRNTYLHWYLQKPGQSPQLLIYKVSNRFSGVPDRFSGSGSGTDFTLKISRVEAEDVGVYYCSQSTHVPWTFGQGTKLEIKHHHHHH ... 1.35
